All figures here come from PubChem BioAssay AID1199.

test system: mouse carcinogenicity bioassay, TD50 from CPDB; experiment: DSSTox (CPDBAS) Carcinogenic Potency Database Summary Mouse Bioassay Results
MEASUREMENT_NAME: Potency

Worked cases, Potency given:
> print(dat)
                                   compound               value
1  CC(C)(C)NC(=O)[C@H]1CC[C@H]2[C@@H]3CC[C@H]4NC(=O)C=C[C@]4(C)[C@H]3CC[C@]12C   0.875 mmol/kg/day
2                   Nc1ccc(-c2ccc(N)cc2)cc1   0.108 mmol/kg/day
3  CCC1NC(=O)C2C(Cl)C(Cl)CN2C(=O)C(CO)NC(=O)CC(c2ccccc2)NC(=O)C(CO)NC1=O (centres undefined)  0.0412 mmol/kg/day
4                               O=NN1CCCCC1  0.0114 mmol/kg/day
5                           Nc1cccc2ccccc12    0.47 mmol/kg/day

QUERY: What reported Potency corresponds to COS(C)(=O)=O on mouse carcinogenicity bioassay, TD50 from CPDB?
RESULT: 0.289 mmol/kg/day

QUERY: What is its Potency for mouse carcinogenicity bioassay, TD50 from CPDB? Entry: Nc1ccc(Oc2ccc(N)c(N)c2)cc1
RESULT: 0.0618 mmol/kg/day

QUERY: Which Potency is reported with mouse carcinogenicity bioassay, TD50 from CPDB for this entry: C#CC(C)(C)NC(=O)c1cc(Cl)cc(Cl)c1 ?
RESULT: 0.547 mmol/kg/day

QUERY: API: value(readout=Potency, system=mouse carcinogenicity bioassay, TD50 from CPDB) for record CCCCN(CCCC)N=O
RESULT: 0.00689 mmol/kg/day

QUERY: Notebook entry, mouse carcinogenicity bioassay, TD50 from CPDB assay: Potency of Cc1cc(O)c(C)c2c1OC(C)(CCCC(C)CCCC(C)CCCC(C)C)CC2 (centres undefined) = ?
RESULT: 8.66 mmol/kg/day
